Recorded values, source patent US9758508B2.

biological target: BTK (Homo sapiens (Human), UniProt Q06187)
Sequence (Q06187 whole entry): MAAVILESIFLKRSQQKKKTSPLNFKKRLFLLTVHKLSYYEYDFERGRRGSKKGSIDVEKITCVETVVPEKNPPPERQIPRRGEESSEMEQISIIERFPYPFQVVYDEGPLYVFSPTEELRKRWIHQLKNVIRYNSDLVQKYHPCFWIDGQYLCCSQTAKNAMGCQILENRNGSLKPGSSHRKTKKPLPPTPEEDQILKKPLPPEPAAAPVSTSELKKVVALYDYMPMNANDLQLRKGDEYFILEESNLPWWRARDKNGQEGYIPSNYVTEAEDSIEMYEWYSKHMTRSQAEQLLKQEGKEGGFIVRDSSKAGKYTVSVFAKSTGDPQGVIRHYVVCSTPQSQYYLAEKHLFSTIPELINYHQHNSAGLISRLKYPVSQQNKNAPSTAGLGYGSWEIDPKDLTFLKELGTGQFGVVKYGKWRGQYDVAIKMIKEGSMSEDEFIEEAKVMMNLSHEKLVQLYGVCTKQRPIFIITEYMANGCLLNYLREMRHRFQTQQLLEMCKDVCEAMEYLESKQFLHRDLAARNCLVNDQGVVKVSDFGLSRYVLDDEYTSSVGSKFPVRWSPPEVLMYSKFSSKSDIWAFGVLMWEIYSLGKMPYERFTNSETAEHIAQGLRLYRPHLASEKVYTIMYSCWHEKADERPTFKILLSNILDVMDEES
Consider the following molecules; for each one, report its pIC50.
Please express pIC50 as -log10 of the molar concentration.

Problem: Given the entry Cc1cnc(-c2ccc(-c3ccc(NC(=O)Nc4c(F)ccc(F)c4F)cc3F)c3c2C(=O)NC3)[nH]1 , report its measured pIC50.
Solution: 9.55

Problem: Query Cc1cnc(-c2ccc(-c3ccc(NC(=O)Nc4c(F)ccc(Cl)c4F)cc3F)c3c2C(=O)NC3)[nH]1 next
Solution: 10.30

Problem: Query Cc1cnc(-c2ccc(-c3ccc(NC(=O)Nc4c(F)cc(F)cc4F)cc3F)c3c2C(=O)NC3)[nH]1 next
Solution: 10.00

Problem: Query Cc1cnc(-c2ccc(-c3ccc(NC(=O)Nc4c(F)cc(Cl)cc4F)cc3F)c3c2C(=O)NC3)[nH]1 next
Solution: 8.40

Problem: Query Cc1cnc(-c2ccc(-c3ccc(NC(=O)Nc4c(F)ccc(F)c4Cl)cc3F)c3c2C(=O)NC3)[nH]1 next
Solution: 10.15

Problem: Query Cc1cnc(-c2ccc(-c3ccc(NC(=O)Nc4ccc(C#N)c(F)c4)cc3F)c3c2C(=O)NC3)[nH]1 next
Solution: 8.30
